Values were extracted from paper PMC9252884.

# Target: TrkA (tropomyosin receptor kinase A) (Homo sapiens)
# Sequence (P04629 441-796 limits assumed): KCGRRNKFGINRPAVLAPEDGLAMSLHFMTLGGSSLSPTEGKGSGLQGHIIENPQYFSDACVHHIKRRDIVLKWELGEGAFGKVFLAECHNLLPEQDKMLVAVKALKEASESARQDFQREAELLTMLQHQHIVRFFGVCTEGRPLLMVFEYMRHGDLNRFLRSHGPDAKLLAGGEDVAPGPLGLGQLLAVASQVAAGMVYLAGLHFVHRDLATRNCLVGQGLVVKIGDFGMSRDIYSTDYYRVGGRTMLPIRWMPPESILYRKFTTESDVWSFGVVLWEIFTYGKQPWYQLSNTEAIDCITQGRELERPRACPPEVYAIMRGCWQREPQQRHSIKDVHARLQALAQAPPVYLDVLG
Recorded metric: IC50

Input: Fill in the recorded IC50 for this compound, with TrkA (tropomyosin receptor kinase A) (Homo sapiens) as test system: "Nc1ncc(-c2cnn(C3CCNCC3)c2)cc1-c1nc2ccccc2o1"
Output: 0.0433 µM
